- Test system: Malme-3M
- protocol description: NCI tumour cell line growth inhibition, 48 h
Activity calls are given as the source filed them. No stated cut-off is given here; in the data, active = GI50 up to about 1.1 µM and inactive = higher.
property: GI50

Example entries begin here.
molecule=O=C1C[C@H](COCc2ccccc2)NC(=O)C[C@H](COCc2ccccc2)NC(=O)C[C@H](COCc2ccccc2)N1 value_measured="> 100 µM (inactive)"
molecule=Nc1ccc(C(=O)N/C(=C\c2cccc([N+](=O)[O-])c2)c2nc3ccccc3[nH]2)cc1 value_measured="57.3 µM (inactive)"
molecule=O=[N+]([O-])c1cc(C(F)(F)F)ccc1S(=O)(=O)N[C@@H]1CCCC[C@H]1NS(=O)(=O)c1ccc(C(F)(F)F)cc1[N+](=O)[O-] value_measured="2.49 µM (inactive)"
molecule="CCCCCCCC(=O)N1C2CC3CCC2(CS1(=O)=O)C3(C)C (centres undefined)" value_measured="16.7 µM (inactive)"

For the 3 molecules below, give their GI50 values.
1. CC(=O)OCC1OC(n2c(C)c(/N=N/c3ccccc3)c(C)c(C#N)c2=S)C(OC(C)=O)C(OC(C)=O)C1OC(C)=O (centres undefined)
2. CC(=O)C=C1Nc2ccccc2N1
3. C[Si](C)(C)C#Cc1cc(-c2nc3ccccc3s2)ccc1N

A.
46.3 µM (inactive)
> 100 µM (inactive)
3.35 µM (inactive)

For the 2 molecules below, give their GI50 values.
1. COc1ccc(/C=C(/c2ccc(OC)cc2)c2c(Cl)cc(Cl)c(/C(=C\c3ccc(OC)cc3)c3ccc(OC)cc3)c2/N=N/c2ccccc2)cc1
2. Cn1c(=O)c2c3oc(=O)cc(O)c3c(=O)n3c4ccccc4n(c1=O)c23

A.
["> 100 µM (inactive)", "33.1 µM (inactive)"]

----------
- Tested on: SNB-19
- protocol description: NCI tumour cell line growth inhibition, 48 h
Calls of active or inactive are those of the source. No stated cut-off is given here; in the data, active = GI50 up to about 1.1 µM and inactive = higher.
Assignment: determine reported GI50 for the given compounds.

Example entries begin here.
compound=Nc1cc(N2CCOCC2)nc(=O)n1-c1ccc(Cl)cc1 property=GI50 value_measured="> 100 µM (inactive)"
compound=COc1ccc(/C=N/Nc2nnc3c(n2)c2ccccc2c2nn(-c4ccccc4Cl)nc23)cc1 property=GI50 value_measured="> 100 µM (inactive)"
compound=c1ccc(CCCC2Sc3cccc4cccc(c34)S2)cc1 property=GI50 value_measured="> 100 µM (inactive)"

For the 7 compounds below, give their GI50 values.
1. CC(C)(C)N1C(C(=O)c2ccccc2)C1c1ccccc1 (stereo not given)
2. CCOC(=O)[C@H]1C[C@]23CN(C(=O)OC(C)(C)C)CC[C@H]2CCC2(SCCCS2)[C@@H]3N1C
3. CSC1=N/C(=C\c2ccco2)C(=O)N1CN1CCCCC1
4. COc1cc2c(c(OC)c1)C(C)=NC(C)C2 (stereo not given)
5. COc1ccc2c(c1)[n+]([O-])c(-c1ccccc1)c(N)[n+]2[O-]
6. Cc1ccc(NC(=O)CC2SC(Nc3ccc(Cl)cc3)=NC2=O)cc1C (stereo not given)
7. CSc1nc2c(nc(C)c(=O)n2C2OCC(OC(C)=O)C(OC(C)=O)C2OC(C)=O)c(=O)[nH]1 (stereo not given)

A.
["> 100 µM (inactive)", "76 µM (inactive)", "87.3 µM (inactive)", "> 100 µM (inactive)", "42.5 µM (inactive)", "> 78.3 µM (inactive)", "> 100 µM (inactive)"]
